Reported IC50 by item:
Tested on: GBM-F
assayOverview: cell killing, GBM-F patient-derived GBM CSC line
Format: cell-based, human
assayContext: read-out: GBM-F IC50; cell killing
Please respond with the number in nM and leave the unit unwritten.

• Cc1n(Cc2ccc(F)cc2)c2c([n+]1Cc1ccccc1)C(=O)c1ccccc1C2=O [cRIPGBM] = 70

Given the compound CC(=O)N(Cc1ccc(F)cc1)C1=C(NCc2ccccc2)C(=O)c2ccccc2C1=O [RIPGBM] , write its reported IC50.
400

###

Test system: GBM-F
assayOverview: cell killing, GBM-F patient-derived GBM CSC line
Assay type: cell-based, human
assayContext: read-out: GBM-F IC50; cell killing, 72 hours
propertyMeasured: pIC50
# pIC50: negative log10 of molar concentration; output just the value

Report measured pIC50; entry is COCCN(C(C)=O)C1=C(NCc2cnccn2)C(=O)c2ccccc2C1=O [aYM155]
9.19
